Source: patent US5723103A

Test: Apparent lipophilicity from reverse-phase HPLC at pH 7.4
Format: physicochemical
Conditions: not told, extrapolated reverse phase capacity factors in MOPS buffer, read-out: log Papp (apparent lipophilicity)
Text: (b) Extrapolated reverse phase capacity factors in MOPS buffer at pH 7.4.
value.kind: chromatographic logD
Answer with a bare number; do not write a unit.

For record CCCOc1ccc(I)cc1C(=O)N[C@@H]1CN2CCC1CC2 the listed chromatographic logD is 2.81

For record CCCOc1c(I)cc(Cl)cc1C(=O)N[C@@H]1CN2CCC1CC2 the listed chromatographic logD is 2.7

For record COc1ccc(I)cc1C(=O)N[C@@H]1CN2CCC1CC2 the listed chromatographic logD is 2.15

For record CC(C)Oc1ccc(I)cc1C(=O)N[C@@H]1CN2CCC1CC2 the listed chromatographic logD is 2.52

For record CCOc1c(OC)cc(I)cc1C(=O)N[C@@H]1CN2CCC1CC2 the listed chromatographic logD is 2.19

For record COc1cc(Cl)cc(C(=O)N[C@@H]2CN3CCC2CC3)c1OCCF the listed chromatographic logD is 1.58

For record COc1c(OCCF)cc(Cl)cc1C(=O)N[C@@H]1CN2CCC1CC2 the listed chromatographic logD is 1.7

For record O=C(N[C@@H]1CN2CCC1CC2)c1cc(I)ccc1OCCCF the listed chromatographic logD is 2.44

For record O=C(N[C@@H]1CN2CCC1CC2)c1cc(I)ccc1OCCF the listed chromatographic logD is 2.15

For record CCOc1ccc(I)cc1C(=O)N[C@@H]1CN2CCC1CC2 the listed chromatographic logD is 2.38

For record O=C(N[C@@H]1CN2CCC1CC2)c1cc(Cl)cc(I)c1OCCCF the listed chromatographic logD is 2.38

For record O=C(N[C@@H]1CN2CCC1CC2)c1cc(Cl)cc(I)c1OCCF the listed chromatographic logD is 1.95

For record COc1ccc(Br)cc1C(=O)N[C@@H]1CN2CCC1CC2 the listed chromatographic logD is 2.02

For record COc1cc(I)cc(C(=O)N[C@H]2CN3CCC2CC3)c1OC the listed chromatographic logD is 1.87

For record CCOc1c(I)cc(Cl)cc1C(=O)N[C@@H]1CN2CCC1CC2 the listed chromatographic logD is 2.47

For record CCOc1cc(Br)cc(C(=O)N[C@@H]2CN3CCC2CC3)c1OC the listed chromatographic logD is 2.14

For record COc1cc(Cl)cc(C(=O)N[C@@H]2CN3CCC2CC3)c1OC/C=C/I the listed chromatographic logD is 2.58

For record COc1cc(Br)cc(C(=O)N[C@@H]2CN3CCC2CC3)c1OC the listed chromatographic logD is 1.74

For record COc1cc(I)cc(C(=O)N[C@@H]2CN3CCC2CC3)c1OC the listed chromatographic logD is 1.87

----------
experiment: Apparent lipophilicity from reverse-phase HPLC at pH 7.4; assay type: physicochemical; conditions: not told, extrapolated reverse phase capacity factors in MOPS buffer, read-out: log Papp (apparent lipophilicity)
value.kind: chromatographic logD
Answer with a bare number; do not write a unit.

For record C=CCOc1c(I)cc(Cl)cc1C(=O)N[C@@H]1CN2CCC1CC2 the listed chromatographic logD is 2.63

For record C=CCOc1ccc(I)cc1C(=O)N[C@@H]1CN2CCC1CC2 the listed chromatographic logD is 2.76

For record CC(C)Oc1c(I)cc(Cl)cc1C(=O)N[C@@H]1CN2CCC1CC2 the listed chromatographic logD is 2.45

For record COc1ccc(F)cc1C(=O)N[C@@H]1CN2CCC1CC2 the listed chromatographic logD is 1.34

For record C#CCOc1c(I)cc(Cl)cc1C(=O)N[C@@H]1CN2CCC1CC2 the listed chromatographic logD is 2.57

----------
Biological target: UniProt P35563
Sequence (P35563 24-483): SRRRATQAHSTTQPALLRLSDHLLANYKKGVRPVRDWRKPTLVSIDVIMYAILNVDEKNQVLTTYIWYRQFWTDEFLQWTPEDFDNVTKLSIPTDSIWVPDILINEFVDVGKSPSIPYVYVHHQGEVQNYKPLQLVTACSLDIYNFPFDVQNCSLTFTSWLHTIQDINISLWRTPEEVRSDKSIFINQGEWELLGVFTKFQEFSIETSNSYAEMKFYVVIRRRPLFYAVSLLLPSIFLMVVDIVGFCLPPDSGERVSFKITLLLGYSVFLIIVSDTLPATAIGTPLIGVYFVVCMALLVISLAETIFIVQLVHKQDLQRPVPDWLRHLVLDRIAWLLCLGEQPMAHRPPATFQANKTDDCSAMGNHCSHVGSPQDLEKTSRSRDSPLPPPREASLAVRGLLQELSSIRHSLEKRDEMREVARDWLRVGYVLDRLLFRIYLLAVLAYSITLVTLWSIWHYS
value.kind: pKd
In textbook form, pKd equals minus log to base ten of the concentration in mol/L.

For record COc1cc([125I])cc(C(=O)N[C@@H]2CN3CCC2CC3)c1OC [[^125 I]-4] the listed pKd is 8.82

----------
molecular target: 5-HT-3 receptor (Rattus norvegicus); conditions: Ki, displacement of 0.64 nM [^125 I]-4 binding, Table 3; rat entorhinal cortex homogenate, HEPES buffer; nine concentrations 0.3 to 300 nM, triplicates
pKi: −log10 of the molar value.
Classify as follows. Reported pKi greater than or equal to 9: Criterion met. Reported pKi below: Criterion not met.

# check: pKi of COc1cc(N)c(Cl)cc1C(=O)N[C@@H]1CN2CCC1CC2 [(S)-zacopride] is greater than or equal to 9
Criterion met

# check: pKi of c1ccc2nc(N3CCNCC3)ccc2c1 [quipazine] is greater than or equal to 9
Criterion met

# check: pKi of COc1cc(I)cc(C(=O)N[C@H]2CN3CCC2CC3)c1OC [TDP 991] is greater than or equal to 9
Criterion not met

# check: pKi of CN1[C@@H]2CC[C@H]1C[C@@H](OC(=O)c1cc(Cl)cc(Cl)c1)C2 [bemestron] is greater than or equal to 9
Criterion not met
